- Test system: MALME-3M melanoma
- procedure-details: NCI tumour cell line growth inhibition, 48 h; in the data active means GI50 below about 0.43 µM; inactive means the rest
Result category, one only: active, inactive

test_smiles=Cc1cccc2c(=O)c3c(sc12)c(NCCNCCO)nc1ccccc13 category=inactive

Tell me the assay call for `NC(=O)c1cc(-c2ccc(F)cc2)cc(-c2ccncc2)c1N` please. inactive

Entry `CC(=O)O[C@]1(C(C)=O)CC[C@H]2[C@@H]3C=C(C)C4=CC(=O)CC[C@]4(C)[C@H]3CC[C@@]21C` : call = ? inactive

Can you look up the reported call for `O=C(Nc1ccc2ncnc(Nc3ccc(Oc4cccc(F)c4)c(Cl)c3)c2c1)c1ccc(CNCCO)cc1` for me? inactive

Please state the recorded outcome for this molecule: `CCCCCCCCCCCCCC[n+]1ccc2c(C)c3c(c(C)c2c1)c1cc(O)ccc1n3CC` active

====

- Tested on: COLO 205 colon
- procedure-details: NCI tumour cell line growth inhibition, 48 h
quantity-kind: TGI

// solved cases for TGI follow
compound="NC1CC2NC3CCCCC3NC2CC1N (centres undefined)" subject_of_test="COLO 205 colon" quantity_kind=TGI recorded_result="> 100 µM"
compound=C1=CC=C2NCCCNC3=CC=CC=CC3=NCCCN=C2C=C1 subject_of_test="COLO 205 colon" quantity_kind=TGI recorded_result="> 100 µM"
compound="Cc1occc1C(=S)Nc1ccc(Cl)c(C(=O)OC(C)C2CC2)c1 (centres undefined)" subject_of_test="COLO 205 colon" quantity_kind=TGI recorded_result="51.3 µM"

Short answer on COLO 205 colon for `CCCCNC(=S)Nc1nc(C(=O)NNC(=S)NC2CCCCC2)cs1` , TGI: > 100 µM

Item N=C(N)SCc1ccc(Cl)cc1Cl (tested in a mixture with another compound) was tested on COLO 205 colon; the reported TGI is 39.6 µM

The compound `Nc1nc(Cl)cc(NCCC2(CO)CCC2)n1` , tested on COLO 205 colon, showed TGI of > 100 µM

====

- System: TK-10 renal
- procedure-details: NCI tumour cell line growth inhibition, 48 h; in the data active = GI50 below about 0.43 µM; inactive = the rest
Response enum: t = active, f = inactive

Here's what some known entries look like.
compound=O=C(NCc1ccc(Cn2c(=O)sn(-c3ccccc3)c2=O)cc1)OCc1ccc2c(Br)cc(Br)c(O)c2n1 category=t
compound="CCCCCCCCCCCC1CCCC(C)N1 (stereo not given)" category=f
compound=COc1cc2c(cc1C)NC(=O)/C2=C\c1cccc(Oc2ccccc2)c1 category=f
compound=CO/N=C(\C)COc1ccc2c(=O)c(-c3ccccc3)coc2c1 category=f

Recorded call for `O=C(Nc1ccccc1)NS(=O)(=O)c1ccc(-n2nc3c(c2-c2ccc(Cl)cc2)Cc2ccccc2-3)cc1` ? f

Write down the call the test reported for this compound. Item: `CN(C)c1ccc(Nc2cc(-c3cccc(OC(F)(F)F)c3)nc3ccc(N4CCCC4)cc23)cc1` f

Each compound tested received a call. Report the one for `Fc1ccc(Nc2nc3nonc3nc2Nc2ccc(F)cc2)cc1` . f

Called result for C=C1CCC2C(C)(C)CCC[C@]2(C)[C@H]1CO (stereo not given in full) f

Field: outcome | Entry: `CN(C)c1ccc(C(Cc2ccc3ccccc3n2)Cc2ccc3ccccc3n2)cc1` f

Per the assay record, what outcome was assigned to `COc1ccc(Nc2c3ccccc3nc3ccccc23)cc1` ? f

====

This listing pairs molecules with measured TGI.
- Tested on: DMS 114 small cell lung
- procedure-details: NCI tumour cell line growth inhibition, 48 h
Give the value, in units of µM, as a plain number.

Observe how each entry below is paired with its result.
molecule=O=C(Cc1nc2ccccc2s1)Nc1cccc(C(F)(F)F)c1 quantity_kind=TGI reading_unit=µM recorded_result=36.3
molecule=COC(=O)CCC(=O)CC(=O)C(=O)Nc1c(Cl)cc([N+](=O)[O-])cc1Cl quantity_kind=TGI reading_unit=µM recorded_result=77.9
molecule="COc1ccc(/C=c2\\sc3n(c2=O)C(N)=C(C#N)C(c2ccc(OC)cc2)C=3c2nc3ccccc3[nH]2)cc1 (stereo not given)" quantity_kind=TGI reading_unit=µM recorded_result=72.9
molecule="CC(=O)OC(CCC1(C)OC1COc1ccc(CCNC(=O)c2ccccc2)cc1)C(C)(C)OC(C)=O (stereo not given)" quantity_kind=TGI reading_unit=µM recorded_result=15.8

As a next step, examine the molecule that follows.
Item: `CN1CCC(CN2c3ccccc3Sc3ccccc32)CC1` | System: DMS 114 small cell lung | TGI: 29.8

====

- Tested on: NCI-H522 lung
- procedure-details: NCI tumour cell line growth inhibition, 48 h
quantity-kind: GI50

Please review the following examples before continuing.
compound=COc1cc(C2=C(C#Cc3ccccc3)COC2=O)cc(OC)c1OC recorded_result="3010 nM"
compound=CCCCCCCCCCCCCC[n+]1ccc2c(C)c3c(c(C)c2c1)c1cc(O)ccc1n3CC recorded_result="420 nM"
compound=CC1(C)[C@@H](O[C@@H]2OC[C@@H](O[C@@H]3O[C@H](CO)[C@@H](O)[C@H](O)[C@H]3O[C@@H]3OC[C@@H](O)[C@H](O)[C@H]3O)[C@H](O)[C@H]2O[C@@H]2O[C@H](CO)[C@@H](O)[C@H](O)[C@H]2O)CC[C@]2(C)[C@H]3CC[C@]45OC[C@@]6(CC[C@](C)(C=O)C[C@H]64)[C@H](O)C[C@@]5(C)[C@]3(C)CC[C@@H]12 recorded_result="903 nM"

What the record says about `C[C@@H](CO)[C@@H]1CCC=C2CC[C@]3(C)[C@H](CC[C@@H]4[C@@]5(C)CCCNC(C)(C)[C@@H]5CC[C@]43C)[C@H]21` : GI50 is 1850 nM

Record summary for `CC(C)CCN=C(N)c1ccc(N2CCN(c3ccc(C(N)=NCCC(C)C)cc3)CC2)cc1` : reported GI50 = 8730 nM

Entry under test: `Oc1[nH]c2ccc(Cl)cc2c1/C=c1/ccc2c(c1)N=C(c1ccc(F)cc1)N=2` . Its GI50 was 1990 nM

Entry under test: `COc1ccc(Nc2c3ccccc3nc3ccccc23)cc1` . Its GI50 was 1130 nM

Noted for `CC(=O)O[C@]1(C(C)=O)CC[C@H]2[C@@H]3C=C(C)C4=CC(=O)CC[C@]4(C)[C@H]3CC[C@@]21C` : its GI50 reads 53200 nM

// field: GI50; key: `COc1cc2c3c(n(CCCI)c(=O)c2cc1OC)-c1cc2c(cc1C3=O)OCO2` ; value = 8320 nM

====

- Test system: MDA-MB-435
Just give me one of these, please: YES (active), NO (inactive)

Previously resolved entries follow.
molecule=Cc1cc(Cl)ccc1NC(=O)c1cc2ccccc2cc1O category=NO
molecule=Cc1c(COc2cc(OCc3cccc(C#N)c3)c(CN3C[C@H](O)C[C@@H]3C(=O)O)cc2Cl)cccc1-c1ccc2c(c1)OCCO2 category=NO
molecule=CCNC(=O)c1cc2c(-c3cc(C(C)(C)O)ccc3Oc3c(C)cc(F)cc3C)cn(C)c(=O)c2[nH]1 category=NO
molecule=Cc1cccc2c(=O)c3c(sc12)c(NCCNCCO)nc1ccccc13 category=NO
molecule=COc1cc2c(cc1C)NC(=O)/C2=C\c1cccc(Oc2ccccc2)c1 category=NO
molecule=Cn1ccnc1C(=O)/C=C/c1ccccc1 category=NO
molecule=COc1ccc(OC)c(/C=C(/C)[N+](=O)[O-])c1 category=NO
molecule=COc1cc(O)c(C(=O)/C=C/c2ccc(O)cc2)c(O)c1[C@@H]1C[C@H](CCc2ccc(O)cc2)O[C@H](c2ccc(O)cc2)C1 category=NO

Write down the call the test reported for this molecule. Item: `COc1cc2c3c(n(CCCI)c(=O)c2cc1OC)-c1cc2c(cc1C3=O)OCO2` NO

Called result for CC[C@@H](C(=O)[C@@H](C)[C@@H](O)[C@H](C)[C@@H]1O[C@@H]([C@@H](CC)C(=O)N(CC)CC)CC[C@@H]1C)C1O[C@]2(C=CC(=O)[C@]3(CC[C@@](C)([C@H]4CC[C@](O)(CC)[C@H](C)O4)O3)O2)[C@H](C)C[C@@H]1C (some centres not stated) NO

GET /call?item= `O=C(NCc1ccc(Cn2c(=O)sn(-c3ccccc3)c2=O)cc1)OCc1ccc2c(Br)cc(Br)c(O)c2n1` returns the recorded outcome of this test. NO

Assay result, entry CCN(C(=O)c1cc(F)ccc1Oc1cncnc1N1CC2(CCN(CC3CCC(NS(=O)(=O)CC)CC3)CC2)C1)C(C)C (configuration not stated) — outcome? NO

# fetch the recorded call for `O=C(/C=C/c1cc([N+](=O)[O-])ccc1Cl)c1ccccc1` here NO

Record lookup: outcome of this test for `COc1cc(/C=C/C(=O)c2ccc(NC(=O)CN3CCN(c4cc5c(cc4F)c(=O)c(C(=O)O)cn5C4CC4)CC3)cc2)cc(OC)c1OC` ? NO

Assay outcome for `Fc1ccc(Nc2nc3nonc3nc2Nc2ccc(F)cc2)cc1` : what was it? YES

Record request — test call for CN1c2ccccc2C(C)(C)C12C=Cc1cc(O)ccc1O2 (configuration not stated) NO

Can you look up the reported call for `N#Cc1c(N)nc(N2CCOCC2)c(C#N)c1-c1cccnc1` for me? NO
